# TARGET: Epidermal growth factor receptor (Homo sapiens) (UniProt P00533)
# Sequence (P00533 whole entry, looked up): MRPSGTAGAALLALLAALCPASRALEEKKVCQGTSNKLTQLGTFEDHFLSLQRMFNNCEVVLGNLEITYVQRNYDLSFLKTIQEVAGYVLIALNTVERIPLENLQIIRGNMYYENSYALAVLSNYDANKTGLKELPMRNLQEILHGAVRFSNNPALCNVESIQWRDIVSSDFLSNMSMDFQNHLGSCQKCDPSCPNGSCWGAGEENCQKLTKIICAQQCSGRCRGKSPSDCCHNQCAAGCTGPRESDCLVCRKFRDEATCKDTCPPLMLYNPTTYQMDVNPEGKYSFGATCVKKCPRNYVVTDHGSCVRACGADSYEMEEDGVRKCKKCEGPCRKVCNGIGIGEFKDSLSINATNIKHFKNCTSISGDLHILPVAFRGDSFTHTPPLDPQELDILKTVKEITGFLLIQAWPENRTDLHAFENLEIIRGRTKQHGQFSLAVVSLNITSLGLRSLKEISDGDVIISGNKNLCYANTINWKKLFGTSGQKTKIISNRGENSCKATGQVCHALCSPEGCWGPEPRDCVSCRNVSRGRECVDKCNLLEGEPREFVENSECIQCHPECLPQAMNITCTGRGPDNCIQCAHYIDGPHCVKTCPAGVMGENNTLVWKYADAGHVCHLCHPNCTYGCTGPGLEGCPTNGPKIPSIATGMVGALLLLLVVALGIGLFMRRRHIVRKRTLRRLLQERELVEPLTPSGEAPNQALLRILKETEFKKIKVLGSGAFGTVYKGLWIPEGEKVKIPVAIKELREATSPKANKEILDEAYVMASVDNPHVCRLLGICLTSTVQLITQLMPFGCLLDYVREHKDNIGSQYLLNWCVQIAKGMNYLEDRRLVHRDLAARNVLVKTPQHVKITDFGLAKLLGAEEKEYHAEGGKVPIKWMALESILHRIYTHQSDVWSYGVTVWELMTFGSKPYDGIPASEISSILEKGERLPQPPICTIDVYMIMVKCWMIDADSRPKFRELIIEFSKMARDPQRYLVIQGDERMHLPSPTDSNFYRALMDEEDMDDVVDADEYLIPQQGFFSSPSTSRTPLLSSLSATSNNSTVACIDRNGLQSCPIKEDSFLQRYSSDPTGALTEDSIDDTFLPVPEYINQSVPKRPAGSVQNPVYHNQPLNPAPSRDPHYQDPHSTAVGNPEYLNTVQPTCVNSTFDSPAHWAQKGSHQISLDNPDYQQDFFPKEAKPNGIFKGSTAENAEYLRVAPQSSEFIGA
# METHOD_DESCRIPTION: EGFR binders on small-molecule microarrays, primary screen, biochemical, small-molecule microarray, 635 nm fluorescence (AID 1104);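 further: score merges 667 nm emission intensity with spot signal to noise over triplicate slides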
# DETAILS: EGFR binding, higher = more signal
Reported composite z-score by item:
Give your answer as a number; write no unit.

Worked set:
- Cc1ccc(S(=O)(=O)N[C@@H]2COC(=O)CC=C[C@@H](C)[C@H](NS(=O)(=O)c3ccc(C)cc3)COC(=O)[C@H](C)NC(=O)CC=C[C@H]2C)cc1: 0.0994
- CCN1C(=O)[C@H]2[C@H]3[C@H](O)[C@H](O)CC(=NOCC[C@@H]4C=C[C@H](OC(C)=O)[C@@H](COC(C)=O)O4)[C@@H]3CC[C@H]2C1=O: 0.498

I would be grateful if you could share the reported composite z-score for CCOC(=O)CCN1C(=O)[C@H]2[C@H]3[C@H](O)[C@H](O)CC(=NNC(=O)OCc4ccccc4)[C@H]3CC[C@H]2C1=O .
0.345

I would be grateful if you could share the reported composite z-score for COc1ccc(COC(=O)NN=C2C[C@@H](O)[C@@H](O)[C@@H]3[C@@H]4C(=O)N([C@@H](C)c5ccccc5)C(=O)[C@@H]4CC[C@@H]23)cc1 .
0.362

I would be grateful if you could share the reported composite z-score for O=C1[C@H]2CCn3c(=O)n(Cc4cc5c(cc4Cl)OCO5)c(=O)n3[C@H]2[C@H](O)[C@@H]2O[C@H]12 .
0.413

I would be grateful if you could share the reported composite z-score for CO[C@@H]1COC(=O)[C@H](CCSC)NC(=O)CC=C[C@@H](C)COC(=O)[C@@H]2CCCN2C(=O)CC=C[C@H]1C .
0.898

I would be grateful if you could share the reported composite z-score for Cc1cc(C)c(-c2cc([C@H](C)ON=C[C@@H](C)[C@H](OCc3ccccc3)C(C)C)on2)c(C)c1 .
-0.101
